A set of compounds tested on OVCAR-3, with measured GI50:
Provide the reading as a plain figure in µM.

CC1=C2[C@@H](CC1)[C@]1(C)O[C@@](C3CCCCC3)(C[C@H]1OC(=O)CO)[C@H]2OC(=O)C=Cc1ccccc1 [(Iq)]; 13
CC1=C2[C@@H](CC1)[C@]1(C)O[C@@](c3ccccc3)(C[C@H]1OC(=O)CO)[C@H]2OC(=O)C=Cc1ccccc1 [(Ir)]; 15
CC1=C2[C@@H](CC1)[C@]1(C)O[C@@](C(C)C)(C[C@H]1OC(=O)[C@H](C)O)[C@H]2OC(=O)C=Cc1ccccc1 [(Il)]; 13

Field: next compound
Exercise: For OVCAR-3, give the measured GI50 of the entry CC1=C2[C@@H](CC1)[C@]1(C)O[C@@](C(C)C)(C[C@H]1OC(=O)CO)[C@H]2OC(=O)/C=C/c1ccccc1 [Compound (Ih)]
Key: 39

Source: patent US10287297B2
